- Test system: NF-κB pathway (SEAP) in THP1-Dual cells
- assayProtocol: THP-1 Dual cell SEAP assay (L18-MDP stimulated)
- Format: cell-based
- assayContext: Homo sapiens, THP1-Dual, read-out: NFkB THP1 IC50
pIC50: −log10 of the molar value.
valueKind: pIC50

- compound: "COc1cc2ncc(-c3cc(F)nc(N[C@@H](C)CO)c3)n2cc1S(=O)(=O)C(C)(C)C [Example 222]"
  pIC50: "> 7.30"

In: Find the recorded pIC50 belonging to COc1cc2ncc(-c3cc(F)c(OC)c(F)c3)n2cc1S(=O)(=O)C(C)(C)C [Example 57] and report it.
Out: < 6.00

In: Could you share which pIC50 value was measured for CCCS(=O)(=O)Nc1cc(-c2cnc3cc(OC)c(S(=O)(=O)C(C)(C)C)cn23)cc(F)c1F [Example 266] ?
Out: 6.00 to 6.60

In: I have this compound here, CCCS(=O)(=O)Nc1cc(-c2cnc3ccccn23)cc(F)c1OC [Example 144] , and I need its recorded pIC50.
Out: < 6.00

In: For CC(C)(C)S(=O)(=O)c1ccc2ncc(-c3cc(N)nc(F)c3)n2c1 [Example 330] , what is its reported pIC50?
Out: 6.00 to 6.60

In: Can you look up the measured pIC50 of COc1cc2ncc(-c3cc(F)nc(NCC[C@H]4CNC(=O)C4)c3)n2cc1S(=O)(=O)C(C)(C)C (single isomer, unassigned) [Example 240] for me?
Out: > 7.30

In: // query pIC50 value for entry COc1cc2ncc(-c3cc(F)c(N)nc3O)n2cc1S(=O)(=O)C(C)(C)C [Example 167]
Out: < 6.00

In: GET /values?readout=pIC50&item= COc1cc2ncc(-c3cc(NCCCO)ncc3F)n2cc1S(=O)(=O)C(C)(C)C [Example 310]
Out: < 6.00

In: Need pIC50 of COc1cc2ncc(-c3cc(NCCCO)c(=O)n(C)c3)n2cc1S(=O)(=O)C(C)(C)C [Example 125] , thanks.
Out: 6.60 to 7.30

In: Which value of pIC50 has been reported for COc1cc(N)cc(-c2cnc3cc(OC)c(S(=O)(=O)C(C)(C)C)cn23)c1 [Example 46] in the records?
Out: 6.60 to 7.30

In: Recorded pIC50 of CCCS(=O)(=O)Nc1cc(-c2cnc3cc(OC)c(S(=O)(=O)C(C)(C)C)cn23)cc(OC)c1C [Example 136] , please.
Out: < 6.00

In: Reported pIC50 for COc1cc2ncc(-c3cc(F)nc(N[C@@H](C)CCO)c3)n2cc1S(=O)(=O)C(C)(C)C [Example 236] : what is it?
Out: > 7.30

In: What value of pIC50 has been recorded for this entry: CCCS(=O)(=O)Nc1cc(OC)cc(-c2cnc3cc(OC)c(S(=O)(=O)C(C)(C)C)cn23)n1 [Example 161]
Out: 6.00 to 6.60

In: # query: pIC50 of entry CCOc1cc2ncc(-c3cc(F)nc(NCCC(O)CC)c3)n2cc1S(=O)(=O)C(C)C (racemic) [Example 246]
Out: > 7.30

In: Name the reported pIC50 value associated with the compound COc1cn2ncc(-c3cc(NS(C)(=O)=O)c(OC)c(OC)c3)c2cc1S(=O)(=O)C(C)(C)C [Example 141]
Out: 6.60 to 7.30

In: Suppose we examine the compound COc1cc2ncc(-c3cnc(N)c(N)n3)n2cc1S(=O)(=O)C(C)(C)C [Example 128] ; what pIC50 value has been reported?
Out: < 6.00

---

- System: NF-κB pathway (SEAP) in THP1-Dual cells
- assayProtocol: THP-1 Dual cell SEAP assay (L18-MDP stimulated)
- Type: cell-based
- assayContext: Homo sapiens, THP1-Dual, read-out: NFkB THP1 IC50
pIC50: −log10 of the molar value.
valueKind: pIC50

Below, each entry is followed by its recorded pIC50 result.
- molecule: "COc1cc2ncc(-c3cc(F)nc(NC[C@@H]4CCNC(=O)C4)c3)n2cc1S(=O)(=O)C(C)(C)C (single isomer, unassigned)"
  observed: "6.60 to 7.30"
- molecule: "CCOc1cn2ncc(-c3cc(F)c(N)nc3F)c2cc1S(=O)(=O)C(C)(C)C"
  observed: "6.00 to 6.60"
- molecule: "COc1cc2ncc(-c3cc(F)nc(NCc4ccn(C)c(=O)c4)c3)n2cc1S(=O)(=O)C(C)(C)C"
  observed: "> 7.30"
- molecule: "COc1cc2ncc(-c3cc(F)nc(N[C@@H]4CCCC[C@H]4O)c3)n2cc1S(=O)(=O)C(C)(C)C (single isomer, unassigned)"
  observed: "6.00 to 6.60"
- molecule: "COc1cc2ncc(-c3cc(F)nc(NCCCO)c3)n2cc1CO"
  observed: "6.60 to 7.30"
- molecule: "COc1cc2ncc(-c3cc(C)c(F)c(N)c3)n2cc1S(=O)(=O)C(C)(C)C"
  observed: "< 6.00"

Shift focus to the following entry.
In: Any idea what pIC50 was measured for COc1ccc(CNc2cc(-c3cnc4cc(OC)c(S(=O)(=O)C(C)(C)C)cn34)cc(F)n2)cc1 ?
Out: 6.60 to 7.30

---

- testSystem: GST-RIPK2 fusion protein (human RIPK2 amino acids 1-310) (Homo sapiens (Human))
- assayProtocol: RIPK2 binding competition assay (TR-FRET, Tracer 199)
valueKind: IC50

Reference set, count: 3
- structureSmilesString: "COc1cc2ncc(-c3cc(NCCCO)nc(C(F)(F)F)c3)n2cc1S(=O)(=O)C(C)(C)C"
  IC50: "2.5 to 20 nM"
- structureSmilesString: "CCCS(=O)(=O)Nc1cc(-c2cnc3cc(OC)c(C(=O)N(C)C)cn23)cc(OC)c1OC"
  IC50: "2.5 to 20 nM"
- structureSmilesString: "COc1ccc(-c2cnc3cc(OC)c(S(=O)(=O)C(C)(C)C)cn23)cc1F"
  IC50: "2.5 to 20 nM"

In: Quick check: IC50 of COc1cc2ncc(-c3cc(F)c(OC)c(NS(=O)(=O)CC(C)C)c3)n2cc1S(=O)(=O)C(C)(C)C ?
Out: < 1 nM

In: Look up IC50 for this compound: COc1cc2ncc(-c3cc(N)c(=O)n(C)c3)n2cc1S(=O)(=O)C(C)(C)C
Out: 2.5 to 20 nM

In: Quick one: IC50 of COc1cc2ncc(-c3cc(F)c(N)c(N)c3F)n2cc1S(=O)(=O)C(C)(C)C ?
Out: 2.5 to 20 nM

In: Given the entry COc1cc2ncc(-c3cc(F)c(OC)c(CCO)c3)n2cc1S(=O)(=O)C(C)(C)C , report its measured IC50.
Out: 2.5 to 20 nM

In: Reported IC50, compound CCCS(=O)(=O)Nc1cc(OC)cc(-c2cnc3cc(OC)c(S(=O)(=O)C(C)(C)C)cn23)n1 : ____
Out: 2.5 to 20 nM

In: Value lookup for IC50; key = CCCS(=O)(=O)Nc1cc(-c2cnc3cc(OC)c(S(=O)(=O)C(C)(C)C)cn23)cc(OC)c1F
Out: 1 to 2.5 nM

---

Each entry below lists one item and its recorded pIC50 value.
- testSystem: GST-RIPK2 fusion protein (human RIPK2 amino acids 1-310) (Homo sapiens (Human), UniProt O43353)
- Sequence (O43353 1-310): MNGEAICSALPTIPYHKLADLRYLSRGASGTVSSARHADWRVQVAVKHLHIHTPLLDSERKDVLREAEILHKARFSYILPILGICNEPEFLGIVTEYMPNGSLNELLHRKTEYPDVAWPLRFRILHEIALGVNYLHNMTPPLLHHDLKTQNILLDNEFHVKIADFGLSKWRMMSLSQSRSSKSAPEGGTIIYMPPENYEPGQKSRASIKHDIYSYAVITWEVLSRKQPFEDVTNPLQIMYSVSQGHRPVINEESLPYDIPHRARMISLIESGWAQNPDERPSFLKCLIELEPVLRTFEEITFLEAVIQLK
- assayProtocol: RIPK2 binding competition assay (TR-FRET, Tracer 199)
- assayContext: read-out: RIPK2 IC50; RIPK2 binding competition assay
pIC50: −log10 of the molar value.

# annotated cases, reported pIC50 shown
- structureSmilesString: "COc1cc2ncc(-c3cnc(N)c(C#N)c3)n2cc1S(=O)(=O)C(C)(C)C"
  pIC50: "< 7.70"
- structureSmilesString: "COc1cc2ncc(-c3cc(F)nc(NCCC(C)(C)OC)c3)n2cc1S(=O)(=O)C(C)(C)C"
  pIC50: "> 9.00"
- structureSmilesString: "COc1cc2ncc(-c3ccc(N)nc3)n2cc1S(=O)(=O)C(C)(C)C"
  pIC50: "< 7.70"
- structureSmilesString: "COc1cc2ncc(-c3cc(F)nc(NCC(F)(F)CO)c3)n2cc1S(=O)(=O)C(C)(C)C"
  pIC50: "> 9.00"
- structureSmilesString: "CCc1ccc(-c2cnc3cc(OC)c(S(=O)(=O)C(C)(C)C)cn23)nc1N"
  pIC50: "< 7.70"

In: Which pIC50 reading was recorded for the molecule COc1cc2ncc(-c3cc(F)nc(NC[C@@H](F)CO)c3)n2cc1S(=O)(=O)C(C)(C)C ?
Out: > 9.00

In: // pIC50 lookup, key: COc1ccc(-c2cnn3ccc(S(=O)(=O)C(C)(C)C)cc23)cc1N
Out: < 7.70

In: Query: pIC50; subject: COc1cc2ncc(-c3ccc(N)cn3)n2cc1S(=O)(=O)C(C)(C)C
Out: < 7.70

In: Any idea what pIC50 was measured for COc1cc2ncc(-c3cc(C)c(OC)c(Cl)n3)n2cc1S(=O)(=O)C(C)(C)C ?
Out: < 7.70

In: Item COc1cc2ncc(-c3cc(F)c(OC)c(F)c3)n2cc1S(=O)(=O)C(C)(C)C has what recorded pIC50?
Out: < 7.70

In: Return reported pIC50; argument: CCOc1cc2ncc(-c3cc(F)c(N)nc3C)n2cc1S(=O)(=O)C(C)C
Out: < 7.70

The measurements presented in this section are drawn from patent US20250346593A1.
